Every entry's value here was drawn from patent US20260139066A1.

Answer each item with its documented koff.
biological target: T1, human urokinase plasminogen activator receptor, recombinant extracellular domain protein (human, UniProt Q03405 23-303); assay: SPR (Biacore T200) kinetics, purified sdAb 150-0.62 nM, h uPAR immobilised on CM5, 1:1 fit; column kd
T1 construct: Bought recombinant protein (Sino Biological); also called h uPAR; human uPAR
T1 sequence (Q03405 23-303 limits assumed): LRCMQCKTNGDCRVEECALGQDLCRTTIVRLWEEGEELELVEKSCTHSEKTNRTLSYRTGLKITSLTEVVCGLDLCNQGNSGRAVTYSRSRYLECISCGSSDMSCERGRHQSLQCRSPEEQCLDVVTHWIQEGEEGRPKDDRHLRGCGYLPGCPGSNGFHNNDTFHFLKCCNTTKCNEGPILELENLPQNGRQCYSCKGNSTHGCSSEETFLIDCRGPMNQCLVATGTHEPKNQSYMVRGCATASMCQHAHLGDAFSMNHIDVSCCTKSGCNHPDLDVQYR
Answers are plain numbers, in s⁻¹.

// below: answered binders
# BINDER, ENDPOINT, VALUE UNIT, ASSAY RESULT
data = [
    ("sdAb 15 (clone 5A4) with carboxy-terminal hexahistidine tag (VHH, Lead compound; C-terminal 6His for purified-protein SPR; koff screen used bacterial extracts of the pMECS-GG construct; also called sdAb15.6His; Nr 15) VHH: QVQLQESGGGWVQPGGSLRLSCAASGFTLDYYGIGWFRQAPGKEREGVSCISSSDGSTYYADSVKGRFTISRDNAKNTVYLQMNSLKPEDTAVYYCATRGASCYYTGSYSLGYDYWGQGTQVTVSS", "koff", "s⁻¹", 0.0034),
    ("sdAb 17 (clone 5B7) with carboxy-terminal hexahistidine tag (VHH, C-terminal 6His for purified-protein SPR; koff screen used bacterial extracts; also called Nr 17) VHH: QVQLQESGGGLVQPGGSLRLSCAVSGSTLEYYGIGWFRQAPGKEREGVSCISSSDGSTYYADSVKGRFTISRDNAKNTVYLQMNSLKPEDTAVYYCATRGASCYYTGSYSLGYDYWGQGTQVTVSS", "koff", "s⁻¹", 0.0019),
    ("sdAb 16 (clone 5A5) with carboxy-terminal hexahistidine tag (VHH, C-terminal 6His for purified-protein SPR; koff screen used bacterial extracts; also called Nr 16) VHH: QVQLQESGGGLVQPGGSLRLSCAISGFTLDYYGIGWFRQAPGKEREGVSCISSSDGSTYYADSVKGRFTISRDNAKNTVYLQMNSLKPEDTAVYYCATRGASCYYSGSYSLGYDYWGQGTQVTVSS", "koff", "s⁻¹", 0.0015),
]

Requested field: koff. Item: sdAb 18 (clone 5H2) with carboxy-terminal hexahistidine tag (VHH, C-terminal 6His for purified-protein SPR; koff screen used bacterial extracts; also called Nr 18) VHH: QVQLQESGGGLAQPGGSLRLSCTASGFTSDYYGIGWFRQAPGKEREGVSCISSSDGSTYYADSVKGRFTISRDNAKNTVYLQMNSLKPEDTAVYYCATRGASCYYTGSYSLGYDYWGQGTQVTVSS
0.004
